molecular target: Mu-type opioid receptor (Mus musculus); experiment: Antagonistic activity towards morphine induced mu-opioid receptor by mouse writhing assay at 1.25 mg/kg subcutaneously; assay type: functional, organism-based; set-up: dose 1.25 mg/kg
READOUT TYPE: log10 of AD50 (log10 of the value in mg/kg)
Log scale reminder: AD50 in mg/kg, then log10 taken.

I'd like to know its log10 of AD50. The compound in question is C[C@H]1CN(CCC2CCCC2)CC[C@@]1(C)c1cccc(O)c1
-0.85

Same question for C[C@@H]1CN(CC[C@H](O)C2CCCCC2)CC[C@]1(C)c1cccc(O)c1 please.
-0.89

Same question for C[C@H]1CN(CCCc2cccs2)CC[C@@]1(C)c1cccc(O)c1 (stereo in doubt; 29) please.
-0.66

Same question for C=C(C)CCCN1CC[C@@](C)(c2cccc(O)c2)[C@@H](C)C1 please.
-1.11

Same question for C=C1CC[C@@]2(O)[C@H]3Cc4ccc(O)c5c4[C@@]2(CCN3CC2CC2)[C@H]1O5 please.
-1.70

Same question for C[C@H]1CN(CC[C@@H](O)C2CCCCC2)CC[C@@]1(C)c1cccc(O)c1 please.
-1.52

Same question for CCCCCCCN1CC[C@@](C)(c2cccc(O)c2)[C@@H](C)C1 please.
-0.68

Same question for C[C@H]1CN(CCC(O)c2ccccc2)CC[C@@]1(C)c1cccc(O)c1 (stereo not given in full) please.
-1.30

Same question for C[C@H]1CN(CCCC2CCCCC2)CC[C@@]1(C)c1cccc(O)c1 please.
-0.46

Same question for CCCCCCN1CC[C@](C)(c2cccc(O)c2)[C@H](C)C1 please.
-0.68

* * *

system: Rattus norvegicus; test: Tested for concentration required to reduce the food consumption by 20 % subcutaneously; assay type: functional; details: Rattus norvegicus, sc; read-out: ED50
log10(ED50) values, listed per item
Log scale reminder: ED50 in mg/kg, then log10 taken.

[[record]]
compound = "C[C@H]1CN(CCCc2cccs2)CC[C@@]1(C)c1cccc(O)c1 (stereo in doubt; 29)"
result_value = -1.15


I'd like to know its log10(ED50). The compound in question is C[C@H]1CN(CCC(O)c2cccs2)CC[C@@]1(C)c1cccc(O)c1 (stereo not given in full)
-1.15

Same question for C[C@H]1CN(CCCC2CCCC2)CC[C@@]1(C)c1cccc(O)c1 please.
0.08

Same question for C[C@H]1CN(CC[C@@H](O)C2CCCCC2)CC[C@@]1(C)c1cccc(O)c1 please.
-0.80

Same question for C[C@H]1CN(C)CC[C@@]1(C)c1cccc(O)c1 please.
0.61

Same question for C=CCN1CC[C@]23c4c5ccc(O)c4O[C@H]2C(=O)CC[C@@]3(O)[C@H]1C5 please.
0.08

* * *

tested on: Rattus norvegicus; test: Tested for concentration required to reduce the food consumption by 20 % subcutaneously; type: functional
Note to self: ED50 under 0.1 mg/kg means TRUE, ties and anything higher get FALSE.

[[record]]
compound = "CCCCCCN1CC[C@@](C)(c2cccc(O)c2)[C@@H](C)C1 (stereo in doubt; 16)"
target_or_system = "Rattus norvegicus"
label_value = "FALSE"

[[record]]
compound = "CC(C)CCCCN1CC[C@@](C)(c2cccc(O)c2)[C@@H](C)C1 (stereo in doubt; 39)"
target_or_system = "Rattus norvegicus"
label_value = "FALSE"

[[record]]
compound = "CCCCCCN1CC[C@@](C)(c2cccc(O)c2)[C@@H](C)C1 (stereo in doubt; 37)"
target_or_system = "Rattus norvegicus"
label_value = "FALSE"

[[record]]
compound = "CC(C)CCCCN1CC[C@@](C)(c2cccc(O)c2)[C@@H](C)C1 (stereo in doubt; 21)"
target_or_system = "Rattus norvegicus"
label_value = "TRUE"


In the following, a different compound is considered.
For this compound, is ED50 lower than 0.1 mg/kg? C[C@H]1CN(CCCc2cccs2)CC[C@@]1(C)c1cccc(O)c1 (stereo in doubt; 41)
FALSE
